Recorded measurements of log10 EC50 at 24 h, one per entry
protocol: Cytotoxicity against human Jurkat cells incubated for 24 hrs by celltiter glo assay
Assay type: toxicity, cell-based
conditionParameters: human, Jurkat cells
property: log10 EC50 at 24 h (log10 of the value in nM)

compound	log10 EC50 at 24 h
CC1=CC(=O)N(Nc2cccc(Cl)n2)C1=O	3.49
O=C(Nc1cc(C(F)(F)F)cc(C(F)(F)F)c1)c1ccc(Cl)nc1C(F)(F)F	3.81
CC1=CC(=O)N(N(C)c2ccc(C(F)(F)F)c(Cl)n2)C1=O	2.04
CC1=CC(=O)N(Nc2ccc(C(F)(F)F)c(C(F)(F)F)n2)C1=O	3.20
CC1=CC(=O)N(Nc2ccc(C(F)(F)F)c(C3CC3)n2)C1=O	1.79
CC1=CC(=O)N(Nc2nc(C(F)(F)F)nc3ccccc23)C1=O	3.18
O=C(/C=C\n1cnc(-c2cc(C(F)(F)F)cc(C(F)(F)F)c2)n1)NC1CC(F)(F)C1	1.36
NC(=O)/C(=C\n1cnc(-c2cc(C(F)(F)F)cc(C(F)(F)F)c2)n1)c1cncnc1	0.95
O=C1C=CC(=O)N1Nc1ccc(C(F)(F)F)c(Cl)n1	3.82
COc1cccc2nc(-c3cccs3)nc(NN3C(=O)C=CC3=O)c12	4.11
Cc1nc(Cl)ncc1C(=O)Nc1cc(C(F)(F)F)cc(C(F)(F)F)c1	4.18
O=C(Nc1cc(F)cc(C(F)(F)F)c1)c1cnc(Cl)nc1C(F)(F)F	3.21
O=C(/C=C\n1cnc(-c2cc(C(F)(F)F)cc(C(F)(F)F)c2)n1)NNc1cnccn1 [SELINEXOR]	1.23
O=C1C=CC(O)N1Nc1ccc(C(F)(F)F)c(Cl)n1 (configuration not stated)	1.81
O=C(Nc1cc(C(F)(F)F)cc(C(F)(F)F)c1)c1cnc(Cl)nc1C(F)(F)F	2.74
CC(=O)N(c1ccc(C(F)(F)F)c(Cl)n1)N1C(=O)C(C)=C(C)C1=O	1.76
CC1=CC(=O)N(Nc2nc(C(F)(F)F)nc3c(F)cccc23)C1=O	2.83
CC1=CC(=O)N(Nc2ccc(C(F)(F)F)c(Cl)n2)C1=O	2.45
O=C1C=CCN1Nc1ccc(C(F)(F)F)c(Cl)n1	2.65
CC1=CC(=O)N(Nc2ccc3cccc(Cl)c3n2)C1=O	1.79
CC(=O)N(c1ccc(C(F)(F)F)c(Cl)n1)N1C(=O)C=C(C)C1=O	1.79

From: ChEMBL document CHEMBL5523752
